Assay target: CYP2C19 (Homo sapiens)
Sequence (P33261 whole entry): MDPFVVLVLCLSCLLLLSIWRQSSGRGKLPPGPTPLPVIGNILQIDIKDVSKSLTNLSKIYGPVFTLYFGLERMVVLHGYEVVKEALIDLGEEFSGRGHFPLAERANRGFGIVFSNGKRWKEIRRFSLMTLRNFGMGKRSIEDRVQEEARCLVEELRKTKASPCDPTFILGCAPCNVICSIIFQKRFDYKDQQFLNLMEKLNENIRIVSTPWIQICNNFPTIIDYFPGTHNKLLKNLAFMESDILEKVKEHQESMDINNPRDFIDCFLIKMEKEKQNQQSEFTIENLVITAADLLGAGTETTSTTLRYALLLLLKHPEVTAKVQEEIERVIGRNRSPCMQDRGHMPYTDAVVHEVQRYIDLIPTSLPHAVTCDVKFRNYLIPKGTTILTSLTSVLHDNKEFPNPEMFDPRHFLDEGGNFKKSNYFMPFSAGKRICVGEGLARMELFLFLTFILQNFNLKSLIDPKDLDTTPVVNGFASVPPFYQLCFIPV
Procedure summary: Inhibition of human CYP2C19 expressed in baculovirus-infected insect microsomes at 1 uM
Format: ADME, Microsome
Outcome measure: inhibition at 1 µM (%)

# count of solved cases: 2
- Compound structure string: "O=C1CCc2cc(-c3cncc4ccccc34)cc3c2N1CCC3"
  Outcome measure: "inhibition at 1 µM"
  Unit name: "%"
  Quantitative result: 67
- Compound structure string: "O=C1CCc2cc(-c3cccnc3)cc3c2N1CCC3"
  Outcome measure: "inhibition at 1 µM"
  Unit name: "%"
  Quantitative result: 8

[P] COc1cncc(-c2cc3c4c(c2)CCN4C(=O)CC3)c1
[Q] COc1cncc(-c2cc3c4c(c2)CCC(=O)N4CCC3)c1
In the pair P and Q , the larger recorded inhibition at 1 µM belongs to which? Field: selected label. Fill in the label of the entry you choose.
Q

###

This section presents compounds with their documented inhibition at 2 µM values.
Assay target: CYP17 (Homo sapiens)
Sequence (P05093 whole entry): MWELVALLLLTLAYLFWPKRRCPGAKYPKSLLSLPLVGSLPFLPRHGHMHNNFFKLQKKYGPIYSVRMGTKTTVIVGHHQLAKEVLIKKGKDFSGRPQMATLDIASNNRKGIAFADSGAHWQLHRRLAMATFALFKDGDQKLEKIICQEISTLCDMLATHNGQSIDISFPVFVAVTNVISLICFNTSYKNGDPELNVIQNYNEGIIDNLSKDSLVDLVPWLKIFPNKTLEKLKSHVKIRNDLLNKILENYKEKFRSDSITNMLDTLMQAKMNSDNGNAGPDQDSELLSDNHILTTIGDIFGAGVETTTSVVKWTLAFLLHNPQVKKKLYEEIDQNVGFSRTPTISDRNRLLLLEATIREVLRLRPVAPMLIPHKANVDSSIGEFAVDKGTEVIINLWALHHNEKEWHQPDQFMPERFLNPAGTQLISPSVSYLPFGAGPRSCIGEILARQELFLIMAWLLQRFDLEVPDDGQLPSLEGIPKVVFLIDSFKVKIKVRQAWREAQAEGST
Procedure summary: Inhibition of human CYP17 expressed in Escherichia coli using progesterone substrate at 2 uM
Reported conditions: recombinant human CYP17 expressed in Escherichia coli, probe progesterone

- Compound structure string: "COc1cncc(-c2cc3c4c(c2)CCN4C(=O)CC3)c1"
  inhibition at 2 µM: "< 5%"

Give the measured inhibition at 2 µM of O=C1CCc2cc(-c3cncc(-c4ccc(F)c(F)c4)c3)cc3c2N1CC3 .
< 5%

Give the measured inhibition at 2 µM of COc1cccc(-c2cncc(-c3cc4c5c(c3)CCN5C(=O)CC4)c2)c1 .
< 5%

###

Assay target: Cytochrome P450 11B1, mitochondrial (Homo sapiens, UniProt P15538)
Sequence (P15538 whole entry): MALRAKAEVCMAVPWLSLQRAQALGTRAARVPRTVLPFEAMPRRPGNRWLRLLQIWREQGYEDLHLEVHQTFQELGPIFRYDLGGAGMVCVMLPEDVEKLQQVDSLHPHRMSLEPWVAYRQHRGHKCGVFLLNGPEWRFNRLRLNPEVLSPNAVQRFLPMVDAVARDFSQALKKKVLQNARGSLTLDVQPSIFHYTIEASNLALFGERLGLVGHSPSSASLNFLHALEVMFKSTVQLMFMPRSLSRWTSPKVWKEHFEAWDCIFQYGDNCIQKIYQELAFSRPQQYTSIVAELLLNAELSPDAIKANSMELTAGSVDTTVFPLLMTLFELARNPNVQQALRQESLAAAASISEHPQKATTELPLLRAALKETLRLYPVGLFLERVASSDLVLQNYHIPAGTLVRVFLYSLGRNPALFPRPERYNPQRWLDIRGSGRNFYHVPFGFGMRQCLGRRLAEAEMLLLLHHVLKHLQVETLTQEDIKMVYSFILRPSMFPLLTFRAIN
Procedure summary: Inhibition of human CYP11B1 expressed in hamster V79 MZh cells assessed as conversion of [4-14C]-11-deoxycorticosterone substrate by HPTLC assay
Outcome measure: IC50 (nM)

- Compound structure string: "CCOc1cncc(-c2cc3c4c(c2)CCN4C(=O)CC3)c1"
  Quantitative result: 158

[A] O=C1CCc2cc(-c3cncc(-c4cccc(C(F)(F)F)c4)c3)cc3c2N1CC3
[B] O=C1CCc2cc(-c3cncc(-c4cccc(O)c4)c3)cc3c2N1CC3
[C] O=C1CCc2cc(-c3cncc(-c4cccc(F)c4)c3)cc3c2N1CC3
[D] CC(C)Oc1cncc(-c2cc3c4c(c2)CCN4C(=O)CC3)c1
I would appreciate it if you could sort these 4 molecules by IC50, starting from the smallest number. List the labels in the requested order.
B, D, C, A
